- Target Of Assay: human muscarinic M3 receptor (Homo sapiens)
- Construct: expressed in transfected cells
- Sequence (P20309 whole entry): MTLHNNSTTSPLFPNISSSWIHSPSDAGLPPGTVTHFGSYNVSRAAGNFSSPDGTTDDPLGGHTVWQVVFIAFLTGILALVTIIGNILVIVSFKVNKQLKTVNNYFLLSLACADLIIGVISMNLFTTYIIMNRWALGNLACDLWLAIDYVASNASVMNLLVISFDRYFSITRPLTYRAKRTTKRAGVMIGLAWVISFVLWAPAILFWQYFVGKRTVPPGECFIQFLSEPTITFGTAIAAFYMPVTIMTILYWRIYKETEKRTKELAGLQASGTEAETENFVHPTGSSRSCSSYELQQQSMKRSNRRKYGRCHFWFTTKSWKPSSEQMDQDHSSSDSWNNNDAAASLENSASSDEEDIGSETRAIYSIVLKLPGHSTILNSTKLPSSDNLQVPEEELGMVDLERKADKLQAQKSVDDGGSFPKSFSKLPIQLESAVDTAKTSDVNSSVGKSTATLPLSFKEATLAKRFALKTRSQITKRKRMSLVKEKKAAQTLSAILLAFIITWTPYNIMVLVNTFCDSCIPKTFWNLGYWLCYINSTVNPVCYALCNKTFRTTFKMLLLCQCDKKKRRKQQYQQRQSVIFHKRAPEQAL
- Experiment Description: Alphascreen Surefire phospho-ERK1/2 functional assay, M3
- Type: cell-based
- Experimental Parameters: CHO cells stably expressing human M3; phospho-ERK1/2; read-out: pEC50 M3 (converted)
Outcome Measure: EC50

Supply recorded EC50 for CCOC(=O)N1CCC2(CC(N3CCC(N(CC4(C)CCC4)C(C)=O)CC3)C2)C1 (single isomer, unassigned) [Example 2-21 Isomer 2] here.
> 20 µM

Supply recorded EC50 for CCOC(=O)N1CCC2(CC(N3CCC(N(C(C)=O)C4CC4)CC3)C2)C1 (single isomer, unassigned) [2-3 Isomer 2] here.
> 20 µM

Supply recorded EC50 for CCOC(=O)N1CCC2(CC(N3CCC(N(CCO)CC(F)(F)F)CC3)C2)C1 (single isomer, unassigned) [2-51 Isomer 2] here.
> 20 µM

Supply recorded EC50 for CCOC(=O)N1CCC2(CC(N3CCC(N(C(=O)OC)C4COC4)CC3)C2)C1 (single isomer, unassigned) [2-47 Isomer 2] here.
1.26 µM

Supply recorded EC50 for CCOC(=O)N1CCC2(CC(N3CCC(N(Cc4cnco4)CC(F)(F)F)CC3)C2)C1 (single isomer, unassigned) [2-62 Isomer 2] here.
> 20 µM

Supply recorded EC50 for CCOC(=O)N1CCC2(CC(N3CCC(N(CC(F)F)C(C)=O)CC3)C2)C1 (single isomer, unassigned) [2-24 Isomer 2] here.
> 20 µM

====

- Target Of Assay: human muscarinic M3 receptor (Homo sapiens)
- Construct: expressed in transfected cells
- Experiment Description: Alphascreen Surefire phospho-ERK1/2 functional assay, M3
- Type: cell-based
- Experimental Parameters: CHO, read-out: % Emax cf. ACh (M3), CHO cells stably expressing human M3; phospho-ERK1/2; relative to ACh
Record form. Attribute: Emax. Fill in for each entry.
Don't forget the unit after the value.

Supply recorded Emax for CCOC(=O)N1CCC2(CC(N3CCC(N(C=O)CC)CC3)C2)C1 (single isomer, unassigned) [2-16 Isomer 2] here.
2%

Supply recorded Emax for CCOC(=O)N1CCC2(CC(N3CCC(N(Cc4ccon4)C4CC4)CC3)C2)C1 (single isomer, unassigned) [2-10 Isomer 2] here.
7%

Supply recorded Emax for CCOC(=O)N1CCC2(CC(N3CCC(N(CC)CCF)CC3)C2)C1 (single isomer, unassigned) [2-45 Isomer 2] here.
16%

Supply recorded Emax for CCOC(=O)N1CCC2(CC(N3CCC(N(CC4(OC)CCC4)C(C)=O)CC3)C2)C1 (single isomer, unassigned) [2-30 Isomer 2] here.
26%

Supply recorded Emax for CCOC(=O)N1CCC2(CC(N3CCC(N(CC(F)(F)F)C4CC4)CC3)C2)C1 (single isomer, unassigned) [2-48 Isomer 2] here.
53%

Supply recorded Emax for CCOC(=O)N1CCC2(CC(N3CCC(N(C(=O)CC)C4CC4)CC3)C2)C1 (single isomer, unassigned) [2-5 Isomer 2] here.
5%

Supply recorded Emax for CCOC(=O)N1CCC2(CC(N3CCC(N(Cc4ccccc4)C(C)=O)CC3)C2)C1 (single isomer, unassigned) [2-35 Isomer 2] here.
34%

Supply recorded Emax for CCOC(=O)N1CCC2(CC(N3CCC(N(C(=O)OC)C(C)C)CC3)C2)C1 (single isomer, unassigned) [2-41 Isomer 2] here.
1%

Supply recorded Emax for CCOC(=O)N1CCC2(CC(N3CCC(N(Cc4ccccc4)CC(F)(F)F)CC3)C2)C1 (single isomer, unassigned) [2-59 Isomer 2] here.
14%

Supply recorded Emax for CCOC(=O)N1CCC2(CC(N3CCC(C(C)N(C(C)=O)C4CC4)CC3)C2)C1 (single isomer, unassigned) [2-13 Isomer 2] here.
4%

Supply recorded Emax for CCOC(=O)N1CCC2(CC(N3CCC(N(CCO)CC(F)(F)F)CC3)C2)C1 (single isomer, unassigned) [2-51 Isomer 2] here.
22%

Supply recorded Emax for [2H]C([2H])(C)OC(=O)N1CCC2(CC(N3CCC(N(CC)C(C)=O)CC3)C2)C1 (single isomer, unassigned) [2-38 Isomer 2] here.
1%
